# maps each entry to its log10 of solubility thermodynamic
Measurement protocol: Aqueous solubility of the compound in 0.05 M phosphate buffer at pH 7.4 by shake-flask method
Format: physicochemical
Observation type: log10 of solubility thermodynamic (log10 of the value in µg/mL)

{"columns": ["Smi", "Endpoint result"],
 "data": [
  ["CC(C)(CO)CNCc1c(C(=O)N[C@@H]2CCC[C@H](O)C2)noc1-c1ccc(C(F)(F)F)cc1", 1.95],
  ["CN(CCS(C)(=O)=O)Cc1c(C(=O)N[C@@H]2CCC[C@H](O)C2)noc1-c1ccc(C(F)(F)F)cc1", 1.41],
  ["CN(Cc1c(C(=O)N[C@@H]2CCC[C@H](O)C2)noc1-c1ccc(C(F)(F)F)cc1)[C@@H]1CCOC1", 0.82],
  ["C[C@H](NCc1c(C(=O)N[C@@H]2CCC[C@H](O)C2)noc1-c1ccc(C(F)(F)F)cc1)C(F)(F)F", 0.54],
  ["O=C(N[C@@H]1CCC[C@H](O)C1)c1noc(-c2ccc(C(F)(F)F)cc2)c1CNCC1CC1", 1.89],
  ["CC(C)CNCc1c(C(=O)N[C@@H]2CCC[C@H](O)C2)noc1-c1ccc(C(F)(F)F)cc1", 1.89],
  ["CC(C)N(C)Cc1c(C(=O)N[C@@H]2CCC[C@H](O)C2)noc1-c1ccc(C(F)(F)F)cc1", 1.90],
  ["O=C(N[C@@H]1CCC[C@H](O)C1)c1noc(-c2ccc(C(F)(F)F)cc2)c1CNC1CCC1", 1.41],
  ["CN(Cc1c(C(=O)N[C@@H]2CCC[C@H](O)C2)noc1-c1ccc(C(F)(F)F)cc1)C1CCOCC1", 1.91],
  ["CC(C)[C@@H](CO)NCc1c(C(=O)N[C@@H]2CCC[C@H](O)C2)noc1-c1ccc(C(F)(F)F)cc1", 1.91],
  ["COCCN(C)Cc1c(C(=O)N[C@@H]2CCC[C@H](O)C2)noc1-c1ccc(C(F)(F)F)cc1", 1.92]
]}

----------
Measurement protocol: Half life in Wistar rat plasma at 10 mg/kg, po and 2 mg/kg, iv
Type: ADME, organism-based

{"columns": ["Smi", "Units symbol", "half-life"],
 "data": [
  ["CC(C)CNCc1c(C(=O)N[C@@H]2CCC[C@H](O)C2)noc1-c1ccc(C(F)(F)F)cc1", "h", 4],
  ["CC(C)[C@H](CO)NCc1c(C(=O)N[C@@H]2CCC[C@H](O)C2)noc1-c1ccc(C(F)(F)F)cc1", "h", 4.3],
  ["CC(C)NCc1c(C(=O)N[C@@H]2CCC[C@H](O)C2)noc1-c1ccc(C(F)(F)F)cc1", "h", 7.9]
]}

----------
# maps each entry to its Tmax
Measurement protocol: Tmax in Wistar rat at 10 mg/kg, po
Assay type: ADME, organism-based
Set-up: dose 10 mg/kg, route oral
Measurement context: in vivo

{"columns": ["Smi", "Tmax [h]"],
 "data": [
  ["CC(C)CNCc1c(C(=O)N[C@@H]2CCC[C@H](O)C2)noc1-c1ccc(C(F)(F)F)cc1", 2],
  ["CC(C)NCc1c(C(=O)N[C@@H]2CCC[C@H](O)C2)noc1-c1ccc(C(F)(F)F)cc1", 2],
  ["CC(C)[C@H](CO)NCc1c(C(=O)N[C@@H]2CCC[C@H](O)C2)noc1-c1ccc(C(F)(F)F)cc1", 1.5]
]}

----------
Measurement protocol: Intrinsic clearance in rat liver microsomes
Type: ADME, Microsome
Field 'label' (enum: criterion met / criterion not met). Set to criterion met when microsomal CLint is strictly under 90 µL/min/mg; else criterion not met.

{"columns": ["Smi", "Answer label"],
 "data": [
  ["CC(C)CNCc1c(C(=O)N[C@@H]2CCC[C@H](O)C2)noc1-c1ccc(C(F)(F)F)cc1", "criterion not met"],
  ["O=C(N[C@@H]1CCC[C@H](O)C1)c1noc(-c2ccc(C(F)(F)F)cc2)c1CNC1CC1", "criterion met"],
  ["O=C(N[C@@H]1CCC[C@H](O)C1)c1noc(-c2ccc(C(F)(F)F)cc2)c1CNCC1CCC1", "criterion not met"],
  ["C[C@H](NCc1c(C(=O)N[C@@H]2CCC[C@H](O)C2)noc1-c1ccc(C(F)(F)F)cc1)C(F)(F)F", "criterion met"],
  ["O=C(N[C@@H]1CCC[C@H](O)C1)c1noc(-c2ccc(C(F)(F)F)cc2)c1CNCC1CC1", "criterion met"],
  ["CC(C)(CO)CNCc1c(C(=O)N[C@@H]2CCC[C@H](O)C2)noc1-c1ccc(C(F)(F)F)cc1", "criterion not met"],
  ["CC(C)[C@H](CO)NCc1c(C(=O)N[C@@H]2CCC[C@H](O)C2)noc1-c1ccc(C(F)(F)F)cc1", "criterion met"],
  ["CC(C)NCc1c(C(=O)N[C@@H]2CCC[C@H](O)C2)noc1-c1ccc(C(F)(F)F)cc1", "criterion met"]
]}

----------
Measurement protocol: Oral bioavailability in Wistar rat at 10 mg/kg
Assay type: ADME, organism-based
Measurement context: in vivo

{"columns": ["Smi", "Units symbol", "bioavailability"],
 "data": [
  ["CC(C)NCc1c(C(=O)N[C@@H]2CCC[C@H](O)C2)noc1-c1ccc(C(F)(F)F)cc1", "%", 20],
  ["CC(C)CNCc1c(C(=O)N[C@@H]2CCC[C@H](O)C2)noc1-c1ccc(C(F)(F)F)cc1", "%", 33],
  ["CC(C)[C@H](CO)NCc1c(C(=O)N[C@@H]2CCC[C@H](O)C2)noc1-c1ccc(C(F)(F)F)cc1", "%", 4]
]}

----------
# maps each entry to its Cmax
Measurement protocol: Cmax in Wistar rat at 10 mg/kg, po
Format: ADME, organism-based
Design: dose 10 mg/kg, route oral
Measurement context: in vivo
Observation type: Cmax

{"columns": ["Smi", "Observation type", "Endpoint result"],
 "data": [
  ["CC(C)[C@H](CO)NCc1c(C(=O)N[C@@H]2CCC[C@H](O)C2)noc1-c1ccc(C(F)(F)F)cc1", "Cmax", "230 nM"],
  ["CC(C)CNCc1c(C(=O)N[C@@H]2CCC[C@H](O)C2)noc1-c1ccc(C(F)(F)F)cc1", "Cmax", "420 nM"],
  ["CC(C)NCc1c(C(=O)N[C@@H]2CCC[C@H](O)C2)noc1-c1ccc(C(F)(F)F)cc1", "Cmax", "720 nM"]
]}

----------
Test target: Transient receptor potential cation channel subfamily V member 1 (Homo sapiens, UniProt Q8NER1)
Sequence (Q8NER1 whole entry): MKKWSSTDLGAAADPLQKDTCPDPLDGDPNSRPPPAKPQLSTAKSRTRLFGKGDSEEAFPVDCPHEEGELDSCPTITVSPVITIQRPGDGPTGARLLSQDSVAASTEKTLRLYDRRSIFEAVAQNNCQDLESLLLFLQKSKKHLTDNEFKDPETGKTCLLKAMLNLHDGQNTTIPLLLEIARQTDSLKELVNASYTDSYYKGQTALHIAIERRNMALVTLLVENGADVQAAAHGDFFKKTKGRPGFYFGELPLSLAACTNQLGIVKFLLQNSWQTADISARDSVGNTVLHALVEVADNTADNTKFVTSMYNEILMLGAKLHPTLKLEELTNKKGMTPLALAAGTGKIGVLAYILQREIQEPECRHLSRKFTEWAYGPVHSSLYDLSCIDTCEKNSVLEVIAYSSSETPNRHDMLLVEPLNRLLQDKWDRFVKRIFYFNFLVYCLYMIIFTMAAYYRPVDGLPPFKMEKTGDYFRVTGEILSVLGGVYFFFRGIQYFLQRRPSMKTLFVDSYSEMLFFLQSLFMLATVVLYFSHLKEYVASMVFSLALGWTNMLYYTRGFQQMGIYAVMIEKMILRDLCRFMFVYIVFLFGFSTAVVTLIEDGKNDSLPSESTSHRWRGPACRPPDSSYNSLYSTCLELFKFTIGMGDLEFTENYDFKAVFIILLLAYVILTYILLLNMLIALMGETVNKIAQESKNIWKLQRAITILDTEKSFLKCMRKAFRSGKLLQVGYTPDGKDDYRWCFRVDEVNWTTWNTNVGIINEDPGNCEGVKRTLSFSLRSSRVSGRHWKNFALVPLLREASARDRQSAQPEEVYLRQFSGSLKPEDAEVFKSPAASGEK
Measurement protocol: Antagonist activity at human TRPV1 expressed in CHO-K1 cells assessed as inhibition of capsaicin-induced intracellular Ca2+ influx by FLIPR assay

{"columns": ["Molecule", "IC50"],
 "data": [
  ["CCN(Cc1c(C(=O)N[C@@H]2CCC[C@H](O)C2)noc1-c1ccc(C(F)(F)F)cc1)C(C)C", "25.1 nM"],
  ["CN(CCS(C)(=O)=O)Cc1c(C(=O)N[C@@H]2CCC[C@H](O)C2)noc1-c1ccc(C(F)(F)F)cc1", "1260 nM"],
  ["CC(C)CNCc1c(C(=O)N[C@@H]2CCC[C@H](O)C2)noc1-c1ccc(C(F)(F)F)cc1", "1 nM"],
  ["CC(C)(CO)CNCc1c(C(=O)N[C@@H]2CCC[C@H](O)C2)noc1-c1ccc(C(F)(F)F)cc1", "3.16 nM"],
  ["CC(C)N(C)Cc1c(C(=O)N[C@@H]2CCC[C@H](O)C2)noc1-c1ccc(C(F)(F)F)cc1", "25.1 nM"],
  ["O=C(N[C@@H]1CCC[C@H](O)C1)c1noc(-c2ccc(C(F)(F)F)cc2)c1CNC1CCC1", "15.8 nM"],
  ["C[C@H](NCc1c(C(=O)N[C@@H]2CCC[C@H](O)C2)noc1-c1ccc(C(F)(F)F)cc1)C(F)(F)F", "0.158 nM"],
  ["O=C(N[C@@H]1CCC[C@H](O)C1)c1noc(-c2ccc(C(F)(F)F)cc2)c1CNC1CC1", "3.16 nM"],
  ["O=C(N[C@@H]1CCC[C@H](O)C1)c1noc(-c2ccc(C(F)(F)F)cc2)c1CNCC(O)C(F)(F)F (stereo partly drawn)", "10 nM"],
  ["COCCNCc1c(C(=O)N[C@@H]2CCC[C@H](O)C2)noc1-c1ccc(C(F)(F)F)cc1", "126 nM"],
  ["O=C(N[C@@H]1CCC[C@H](O)C1)c1noc(-c2ccc(C(F)(F)F)cc2)c1CNCC1CCC1", "1.26 nM"],
  ["CC(C)[C@H](CO)NCc1c(C(=O)N[C@@H]2CCC[C@H](O)C2)noc1-c1ccc(C(F)(F)F)cc1", "2.51 nM"],
  ["CN(Cc1c(C(=O)N[C@@H]2CCC[C@H](O)C2)noc1-c1ccc(C(F)(F)F)cc1)C1CCOCC1", "79.4 nM"],
  ["CN(Cc1c(C(=O)N[C@@H]2CCC[C@H](O)C2)noc1-c1ccc(C(F)(F)F)cc1)C[C@@H]1CCCO1", "5.01 nM"],
  ["CN(Cc1c(C(=O)N[C@@H]2CCC[C@H](O)C2)noc1-c1ccc(C(F)(F)F)cc1)[C@@H]1CCOC1", "12.6 nM"],
  ["CC(C)[C@@H](CO)NCc1c(C(=O)N[C@@H]2CCC[C@H](O)C2)noc1-c1ccc(C(F)(F)F)cc1", "10 nM"],
  ["COCCN(C)Cc1c(C(=O)N[C@@H]2CCC[C@H](O)C2)noc1-c1ccc(C(F)(F)F)cc1", "7.94 nM"],
  ["NC(=O)C1CCN(Cc2c(C(=O)N[C@@H]3CCC[C@H](O)C3)noc2-c2ccc(C(F)(F)F)cc2)CC1", "3160 nM"]
]}
